# Test summary: Half life in Sprague dawley rat at 1 mg/kg, iv
# Assay type: ADME, organism-based
# Conditions used: in vivo
Readout type: half-life

>  <Mol smiles>
CN1CCN(c2ccc(C(=O)Nc3n[nH]c4c3CN(Cc3cc(F)cc(F)c3)C4(C)C)cc2)CC1

>  <Readout type>
half-life

>  <Meas value>
1.51 h

$$$$

---

# Target or system: CYP2C19 (Homo sapiens, UniProt P33261)
# Sequence (P33261 whole entry): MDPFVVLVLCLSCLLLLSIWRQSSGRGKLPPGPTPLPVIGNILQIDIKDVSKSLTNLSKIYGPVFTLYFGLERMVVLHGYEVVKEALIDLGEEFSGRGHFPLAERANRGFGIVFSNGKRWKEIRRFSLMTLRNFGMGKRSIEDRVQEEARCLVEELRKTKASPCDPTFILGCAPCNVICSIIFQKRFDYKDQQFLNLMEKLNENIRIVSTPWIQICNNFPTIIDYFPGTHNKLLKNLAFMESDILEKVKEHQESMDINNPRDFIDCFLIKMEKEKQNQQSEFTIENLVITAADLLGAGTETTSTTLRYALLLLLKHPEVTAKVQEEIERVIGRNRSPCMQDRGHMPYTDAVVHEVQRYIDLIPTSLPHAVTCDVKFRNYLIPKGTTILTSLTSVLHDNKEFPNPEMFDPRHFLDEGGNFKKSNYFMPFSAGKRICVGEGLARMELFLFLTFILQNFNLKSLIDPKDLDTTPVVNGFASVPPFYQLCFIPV
# Test summary: Inhibition of CYP2C19 in human liver microsomes at 10 uM preincubated for 10 mins followed by addition of NADPH and measured after 15 mins by LC-MS/MS analysis
# Type: ADME
# Conditions used: time 25 min
Readout type: inhibition at 0.25 h, 10 µM (%)

>  <Mol smiles>
CN1CCN(c2ccc(C(=O)Nc3n[nH]c4c3CN(Cc3cc(F)cc(F)c3)C4(C)C)cc2)CC1

>  <Unit abbrev>
%

>  <Meas value>
11.5

$$$$

---

# Test system: KM12
# Test summary: cells
# Conditions used: Homo sapiens, KM12, 72 h
# Description: Antiproliferative activity against human KM12 cells assessed as inhibition of cell growth measured after 72 hrs by CCK-8 assay
Quick reference for IC50 among some compounds
Readout type: IC50 (nM)

>  <Mol smiles>
CN1CCN(c2ccc(C(=O)Nc3n[nH]c4c3CN(Cc3cccc(F)c3F)C4(C)C)cc2)CC1

>  <Bound operator>
=

>  <Meas value>
216

$$$$
>  <Mol smiles>
CN1CCN(c2cccc(C(=O)Nc3n[nH]c4c3CN(Cc3cc(F)cc(F)c3)C4(C)C)c2)CC1

>  <Bound operator>
>

>  <Meas value>
1000

$$$$
>  <Mol smiles>
CC1(C)c2[nH]nc(NC(=O)c3cccc(N4CCOCC4)c3)c2CN1Cc1cc(F)cc(F)c1

>  <Bound operator>
>

>  <Meas value>
1000

$$$$
>  <Mol smiles>
CN1CCN(c2ccc(C(=O)Nc3n[nH]c4c3CN(Cc3cc(F)cc(F)c3)C4(C)C)cc2)CC1

>  <Bound operator>
=

>  <Meas value>
82

$$$$
>  <Mol smiles>
CC1(C)c2[nH]nc(NC(=O)c3ccc(N4CCOCC4)cc3)c2CN1Cc1cccc(F)c1F

>  <Bound operator>
=

>  <Meas value>
146

$$$$
>  <Mol smiles>
CC1(C)c2[nH]nc(NC(=O)c3ccc(N4CCOCC4)cc3)c2CN1Cc1cc(F)cc(F)c1

>  <Bound operator>
=

>  <Meas value>
211

$$$$

---

# Test summary: Stability in human plasma assessed as compound remaining incubated for 0 mins by LC-MS/MS analysis
# Assay type: ADME, cell-free
# Conditions used: read-out: Stability
Readout type: remaining at 0 h

>  <Mol smiles>
CN1CCN(c2ccc(C(=O)Nc3n[nH]c4c3CN(Cc3cc(F)cc(F)c3)C4(C)C)cc2)CC1

>  <Readout type>
remaining at 0 h

>  <Meas value>
100%

$$$$

---

# Target or system: CYP1A2 (Homo sapiens)
# Sequence (P05177 whole entry): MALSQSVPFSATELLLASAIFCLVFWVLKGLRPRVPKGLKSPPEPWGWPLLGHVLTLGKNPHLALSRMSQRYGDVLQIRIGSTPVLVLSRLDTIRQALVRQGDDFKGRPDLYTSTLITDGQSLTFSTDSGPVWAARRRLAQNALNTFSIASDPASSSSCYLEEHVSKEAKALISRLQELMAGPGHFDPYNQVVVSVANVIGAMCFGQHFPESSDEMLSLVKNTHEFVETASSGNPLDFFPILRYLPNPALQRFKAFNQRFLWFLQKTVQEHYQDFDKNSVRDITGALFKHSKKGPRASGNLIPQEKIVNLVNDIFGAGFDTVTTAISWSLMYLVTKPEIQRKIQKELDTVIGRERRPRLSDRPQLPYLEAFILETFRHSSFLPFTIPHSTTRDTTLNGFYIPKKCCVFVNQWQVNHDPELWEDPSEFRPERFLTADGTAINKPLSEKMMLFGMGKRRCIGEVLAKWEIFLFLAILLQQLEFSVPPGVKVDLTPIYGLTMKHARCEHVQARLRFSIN
# Test summary: Inhibition of CYP1A2 in human liver microsomes at 10 uM preincubated for 10 mins followed by addition of NADPH and measured after 15 mins by LC-MS/MS analysis
# Type: ADME
# Conditions used: time 25 min
Readout type: inhibition at 0.25 h, 10 µM (%)

>  <Mol smiles>
CN1CCN(c2ccc(C(=O)Nc3n[nH]c4c3CN(Cc3cc(F)cc(F)c3)C4(C)C)cc2)CC1

>  <Readout type>
inhibition at 0.25 h, 10 µM

>  <Meas value>
12.9

$$$$

---

# Target or system: NT-3 growth factor receptor (Homo sapiens, UniProt Q16288)
# Sequence (Q16288 whole entry): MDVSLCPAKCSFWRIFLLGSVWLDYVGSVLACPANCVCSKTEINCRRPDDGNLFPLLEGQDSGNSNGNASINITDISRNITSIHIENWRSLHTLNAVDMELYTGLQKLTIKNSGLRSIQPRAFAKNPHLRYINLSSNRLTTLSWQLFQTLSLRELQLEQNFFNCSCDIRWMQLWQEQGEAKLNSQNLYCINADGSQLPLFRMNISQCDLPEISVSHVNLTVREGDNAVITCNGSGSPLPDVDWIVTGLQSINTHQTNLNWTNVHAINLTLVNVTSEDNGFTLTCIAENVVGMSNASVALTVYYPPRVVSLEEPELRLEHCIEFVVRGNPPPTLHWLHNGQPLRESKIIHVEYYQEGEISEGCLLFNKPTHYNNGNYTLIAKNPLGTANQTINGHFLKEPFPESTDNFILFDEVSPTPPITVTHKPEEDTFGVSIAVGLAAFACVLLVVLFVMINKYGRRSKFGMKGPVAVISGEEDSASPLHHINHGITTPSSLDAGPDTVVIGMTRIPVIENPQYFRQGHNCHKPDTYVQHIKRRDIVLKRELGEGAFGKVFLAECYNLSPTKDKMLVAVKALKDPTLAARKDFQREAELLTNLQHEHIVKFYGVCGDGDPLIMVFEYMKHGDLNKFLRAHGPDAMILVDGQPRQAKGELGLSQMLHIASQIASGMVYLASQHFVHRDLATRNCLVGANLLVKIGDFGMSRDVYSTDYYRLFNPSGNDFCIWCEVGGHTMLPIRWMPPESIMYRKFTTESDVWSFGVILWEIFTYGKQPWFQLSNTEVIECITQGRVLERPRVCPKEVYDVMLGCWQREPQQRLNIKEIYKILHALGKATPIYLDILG
# Test summary: Inhibition of NT3-activated full length TRKC (unknown origin) by Cell-based beta-galactosidase PathHunter assay
Readout type: IC50 (µM)

>  <Mol smiles>
Cc1ncc(NC(=O)NC2c3ccccc3-c3ccccc32)c(-c2ccccc2)n1

>  <Target or system>
NT-3 growth factor receptor (Homo sapiens, UniProt Q16288)

>  <Unit abbrev>
µM

>  <Meas value>
2.5

$$$$

---

# Test summary: Stability in human plasma assessed as compound remaining incubated for 60 mins by LC-MS/MS analysis
# Type: ADME, cell-free
# Conditions used: read-out: Stability
Readout type: remaining at 1 h (%)

>  <Mol smiles>
CN1CCN(c2ccc(C(=O)Nc3n[nH]c4c3CN(Cc3cc(F)cc(F)c3)C4(C)C)cc2)CC1

>  <Meas value>
99.2

$$$$

---

# Target or system: CYP3A4 (Homo sapiens, UniProt P08684)
# Sequence (P08684 whole entry): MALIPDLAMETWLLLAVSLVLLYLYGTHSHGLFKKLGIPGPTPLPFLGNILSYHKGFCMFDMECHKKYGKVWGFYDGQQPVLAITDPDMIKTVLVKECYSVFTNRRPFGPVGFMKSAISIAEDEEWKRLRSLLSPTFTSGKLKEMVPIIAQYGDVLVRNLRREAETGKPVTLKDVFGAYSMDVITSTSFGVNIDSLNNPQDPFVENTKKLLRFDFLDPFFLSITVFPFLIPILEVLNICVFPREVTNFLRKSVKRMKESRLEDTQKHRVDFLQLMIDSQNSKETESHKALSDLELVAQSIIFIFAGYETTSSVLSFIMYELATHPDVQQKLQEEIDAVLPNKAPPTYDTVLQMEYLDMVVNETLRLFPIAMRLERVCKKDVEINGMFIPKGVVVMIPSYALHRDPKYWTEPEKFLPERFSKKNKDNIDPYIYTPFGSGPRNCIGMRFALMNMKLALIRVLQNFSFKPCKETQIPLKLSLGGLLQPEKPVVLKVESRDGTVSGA
# Test summary: Inhibition of CYP3A4 in human liver microsomes at 10 uM preincubated for 10 mins followed by addition of NADPH and measured after 15 mins by LC-MS/MS analysis
# Assay type: ADME

>  <Mol smiles>
CN1CCN(c2ccc(C(=O)Nc3n[nH]c4c3CN(Cc3cc(F)cc(F)c3)C4(C)C)cc2)CC1

>  <Unit abbrev>
%

>  <inhibition at 0.25 h, 10 µM>
6.4

$$$$

---

# Target or system: BDNF/NT-3 growth factors receptor (Homo sapiens, UniProt Q16620)
# Sequence (Q16620 whole entry): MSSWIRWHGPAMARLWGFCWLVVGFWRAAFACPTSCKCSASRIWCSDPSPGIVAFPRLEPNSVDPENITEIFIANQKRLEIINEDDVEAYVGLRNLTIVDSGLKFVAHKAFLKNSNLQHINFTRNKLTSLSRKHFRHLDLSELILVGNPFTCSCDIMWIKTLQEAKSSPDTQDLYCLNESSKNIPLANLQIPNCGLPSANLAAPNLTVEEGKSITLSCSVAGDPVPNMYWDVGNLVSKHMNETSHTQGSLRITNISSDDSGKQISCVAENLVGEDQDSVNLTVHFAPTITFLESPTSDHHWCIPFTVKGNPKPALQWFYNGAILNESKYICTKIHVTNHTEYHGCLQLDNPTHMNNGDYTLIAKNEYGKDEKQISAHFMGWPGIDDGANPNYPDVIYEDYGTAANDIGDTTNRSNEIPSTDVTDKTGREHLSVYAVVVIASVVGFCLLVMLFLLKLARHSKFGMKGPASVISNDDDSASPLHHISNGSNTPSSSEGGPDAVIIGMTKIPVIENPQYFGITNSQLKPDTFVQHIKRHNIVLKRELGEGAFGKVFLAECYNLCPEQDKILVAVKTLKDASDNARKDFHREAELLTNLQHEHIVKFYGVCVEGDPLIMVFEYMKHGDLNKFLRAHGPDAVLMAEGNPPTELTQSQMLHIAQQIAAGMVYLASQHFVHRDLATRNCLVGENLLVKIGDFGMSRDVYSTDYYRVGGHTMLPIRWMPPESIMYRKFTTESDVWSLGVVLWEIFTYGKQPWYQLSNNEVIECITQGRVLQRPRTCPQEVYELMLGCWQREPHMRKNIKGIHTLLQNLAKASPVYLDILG
# Test summary: Inhibition of BDNF-activated full length TRKB (unknown origin) by Cell-based beta-galactosidase PathHunter assay

>  <Mol smiles>
Cc1ncc(NC(=O)NC2c3ccccc3-c3ccccc32)c(-c2ccccc2)n1

>  <Target or system>
BDNF/NT-3 growth factors receptor (Homo sapiens, UniProt Q16620)

>  <IC50>
> 8.1 µM

$$$$

---

# Test summary: Stability in human liver microsomes assessed as compound remaining in presence of NADPH at 100 uM measured after 60 mins by LC-MS/MS analysis
# Type: ADME, Microsome
# Conditions used: read-out: Stability

>  <Mol smiles>
CN1CCN(c2ccc(C(=O)Nc3n[nH]c4c3CN(Cc3cc(F)cc(F)c3)C4(C)C)cc2)CC1

>  <remaining at 1 h, 100 µM [%]>
22.4

$$$$

---

# Test summary: AUC (last) in Sprague dawley rat at 1 mg/kg, iv
# Type: ADME, organism-based
# Parameters: time 0 - last, route intravenous, dose 1 mg/kg
# Conditions used: in vivo

>  <Mol smiles>
CN1CCN(c2ccc(C(=O)Nc3n[nH]c4c3CN(Cc3cc(F)cc(F)c3)C4(C)C)cc2)CC1

>  <AUC(0-t) / ng·h/mL>
2030

$$$$

---

# Test summary: Stability in human plasma assessed as half life incubated for 0 mins by LC-MS/MS analysis
# Assay type: ADME, cell-free
Readout type: half-life

>  <Mol smiles>
CN1CCN(c2ccc(C(=O)Nc3n[nH]c4c3CN(Cc3cc(F)cc(F)c3)C4(C)C)cc2)CC1

>  <Meas value>
> 4.82 h

$$$$

---

# Test summary: Cmax in Sprague dawley rat at 3 mg/kg, po
# Type: ADME, organism-based
# Parameters: route oral, dose 3 mg/kg
# Conditions used: in vivo

>  <Mol smiles>
CN1CCN(c2ccc(C(=O)Nc3n[nH]c4c3CN(Cc3cc(F)cc(F)c3)C4(C)C)cc2)CC1

>  <Unit abbrev>
ng/mL

>  <Cmax>
603

$$$$

---

# Target or system: UniProt:P11712
# Sequence (P11712 whole entry): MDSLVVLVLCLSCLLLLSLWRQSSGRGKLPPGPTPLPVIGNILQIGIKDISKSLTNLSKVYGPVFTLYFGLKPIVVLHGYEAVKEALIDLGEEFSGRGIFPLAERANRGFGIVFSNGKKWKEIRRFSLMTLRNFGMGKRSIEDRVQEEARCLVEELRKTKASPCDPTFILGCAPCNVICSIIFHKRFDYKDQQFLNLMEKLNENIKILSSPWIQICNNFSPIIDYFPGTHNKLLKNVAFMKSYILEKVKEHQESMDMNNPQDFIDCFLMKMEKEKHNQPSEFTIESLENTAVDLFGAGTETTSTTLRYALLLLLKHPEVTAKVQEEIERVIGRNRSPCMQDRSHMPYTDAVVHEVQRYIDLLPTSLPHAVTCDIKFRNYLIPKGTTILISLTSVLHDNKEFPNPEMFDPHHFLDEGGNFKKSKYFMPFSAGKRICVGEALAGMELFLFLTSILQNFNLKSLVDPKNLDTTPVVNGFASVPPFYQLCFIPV
# Test summary: Inhibition of CYP2C9 in human liver microsomes at 10 uM preincubated for 10 mins followed by addition of NADPH and measured after 15 mins by LC-MS/MS analysis
# Assay type: ADME
# Conditions used: time 25 min

>  <Mol smiles>
CN1CCN(c2ccc(C(=O)Nc3n[nH]c4c3CN(Cc3cc(F)cc(F)c3)C4(C)C)cc2)CC1

>  <inhibition at 0.25 h, 10 µM / %>
16

$$$$

---

# Target or system: CYP2D6 (Homo sapiens, UniProt P10635)
# Sequence (P10635 whole entry): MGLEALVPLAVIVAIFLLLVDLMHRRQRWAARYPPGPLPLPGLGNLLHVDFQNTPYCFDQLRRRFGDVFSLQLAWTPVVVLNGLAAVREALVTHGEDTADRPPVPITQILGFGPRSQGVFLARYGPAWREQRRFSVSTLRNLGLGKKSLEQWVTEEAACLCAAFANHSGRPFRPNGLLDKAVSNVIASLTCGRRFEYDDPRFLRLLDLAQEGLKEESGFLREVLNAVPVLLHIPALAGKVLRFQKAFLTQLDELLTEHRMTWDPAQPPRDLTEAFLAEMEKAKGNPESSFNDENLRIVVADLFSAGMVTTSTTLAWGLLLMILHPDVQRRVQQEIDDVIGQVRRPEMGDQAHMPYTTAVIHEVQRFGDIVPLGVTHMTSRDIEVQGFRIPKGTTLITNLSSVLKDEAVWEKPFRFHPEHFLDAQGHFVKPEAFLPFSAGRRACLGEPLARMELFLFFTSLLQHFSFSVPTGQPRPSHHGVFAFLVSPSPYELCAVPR
# Test summary: Inhibition of CYP2D6 in human liver microsomes at 10 uM preincubated for 10 mins followed by addition of NADPH and measured after 15 mins by LC-MS/MS analysis
# Type: ADME
# Conditions used: time 25 min
Readout type: inhibition at 0.25 h, 10 µM

>  <Mol smiles>
CN1CCN(c2ccc(C(=O)Nc3n[nH]c4c3CN(Cc3cc(F)cc(F)c3)C4(C)C)cc2)CC1

>  <Readout type>
inhibition at 0.25 h, 10 µM

>  <Meas value>
0%

$$$$

---

# Test summary: AUC (last) in Sprague dawley rat at 3 mg/kg, po
# Type: ADME, organism-based
# Parameters: time 0 - last, route oral, dose 3 mg/kg
# Conditions used: in vivo

>  <Mol smiles>
CN1CCN(c2ccc(C(=O)Nc3n[nH]c4c3CN(Cc3cc(F)cc(F)c3)C4(C)C)cc2)CC1

>  <AUC(0-t) [ng·h/mL]>
2700

$$$$

---

# Test summary: Clearance in human microsomes assessed as half life at 100 uM measured after 60 mins by LC-MS/MS analysis
# Assay type: ADME, Liver, Microsome

>  <Mol smiles>
CN1CCN(c2ccc(C(=O)Nc3n[nH]c4c3CN(Cc3cc(F)cc(F)c3)C4(C)C)cc2)CC1

>  <Unit abbrev>
µL/min/mg

>  <microsomal CLint at 100 µM>
46.8

$$$$

---

# Test summary: Oral bioavailability in Sprague dawley rat at 3 mg/kg
# Type: ADME, organism-based
# Conditions used: in vivo

>  <Mol smiles>
CN1CCN(c2ccc(C(=O)Nc3n[nH]c4c3CN(Cc3cc(F)cc(F)c3)C4(C)C)cc2)CC1

>  <bioavailability (%)>
44.3

$$$$

Attribution: ChEMBL document CHEMBL4840303
